- ASSAY_COMMENT: NCI Yeast Anticancer Drug Screen. Data for the mlh1 rad18 strain (AID 175)
- PROTOCOL_CONDITIONS: S. cerevisiae mlh1 rad18 strain growth inhibition; at 50.0 µM; stronger effect = higher value
Compounds without any hit were thinned out: in the full panel of roughly 79,000, 15% have a hit.
PROPERTY_NAME: growth inhibition (%)
Report the value in % with no unit label.

Query :: Value lookup for growth inhibition; key = `CCCC1(CCC)CNC(=O)NC1`
Result :: -10.8

Query :: Value lookup for growth inhibition; key = `O=[N+]([O-])c1nccn1CCC[n+]1ccc2ccccc2c1`
Result :: -17

Query :: Value lookup for growth inhibition; key = `COc1ccc(/C=N/NC(=O)c2cnc3[nH]c(=O)n(C)c(=O)c3c2)cc1`
Result :: 22.4

Query :: Value lookup for growth inhibition; key = COc1ccc(CC(N)C(=O)N(C)C2C(CO)OC(n3cnc4c(N(C)C)ncnc43)C2O)cc1 (stereo unspecified)
Result :: -7.45

Query :: Value lookup for growth inhibition; key = COC1OC(C(C)O)C2OC(C)(C)OC12 (stereo unspecified)
Result :: 13.3

Query :: Value lookup for growth inhibition; key = `c1cc(CSSCc2ccncc2)ccn1`
Result :: 4.75

Query :: Value lookup for growth inhibition; key = `Fc1ccc(C(=C(c2ccc(F)cc2)c2ccc(F)cc2)c2ccc(F)cc2)cc1`
Result :: 7

Query :: Value lookup for growth inhibition; key = `CCOC(=O)Nc1nc(-c2ccc(Br)cc2)cs1`
Result :: -17.9

Query :: Value lookup for growth inhibition; key = CCCOC(=O)NC(C)C(=O)NC(CCC(=O)NC(CCCC(N)C(=O)O)C(=O)NC(C)C(=O)O)C(=O)O (stereo unspecified)
Result :: -10.8

Query :: Value lookup for growth inhibition; key = COc1c2c(c(Cc3c4c(c(OC)c5c3OCO5)OC(C)C4)c3c1OCO3)CC(C)O2 (stereo unspecified)
Result :: -7.3

Query :: Value lookup for growth inhibition; key = `COc1ccc([N+](=O)[O-])cc1NC(=O)N/N=C(\C)C(C)(C)C`
Result :: 6.3

Query :: Value lookup for growth inhibition; key = `CCOc1cc(=O)cc2n(-c3cc(OCC)c(OC)c(OCC)c3)c3ccccc3nc1-2`
Result :: -1.2

Query :: Value lookup for growth inhibition; key = `CCOC(=O)C(=CNc1ccc(F)c(F)c1)C(=O)OCC`
Result :: -36

Query :: Value lookup for growth inhibition; key = `CCN(CC)CCc1c2c(nc3ccccc13)C(=O)c1cccnc1C2=O`
Result :: -21.5

Query :: Value lookup for growth inhibition; key = `Cc1cccc(Cl)c1NC(=O)NCCCN1CCOCC1`
Result :: 6.45

Query :: Value lookup for growth inhibition; key = `CC(C)CSc1nc2ccc(N=Cc3ccccc3O)cc2s1`
Result :: -17.3

* * *

Please provide measured growth inhibition for the entries that follow.
- ASSAY_COMMENT: NCI Yeast Anticancer Drug Screen. Data for the mlh1 rad18 strain (AID 175)
- PROTOCOL_CONDITIONS: S. cerevisiae mlh1 rad18 strain growth inhibition; at 50.0 µM; stronger effect = higher value
About 79,000 compounds went through this panel and 15% of them were active in at least one assay; those are over-represented in the sample as a whole.
Report the value in % with no unit label.

Query :: Value lookup for growth inhibition; key = `CS(=O)(=O)OC[C@@H](O)[C@@H](O)COS(C)(=O)=O`
Result :: -6.85

Query :: Value lookup for growth inhibition; key = `CCNC(=S)NCC`
Result :: 17.5

Query :: Value lookup for growth inhibition; key = `FC(F)(c1nn[nH]n1)C(F)(F)C(F)(F)c1nn[nH]n1`
Result :: -2.95

Query :: Value lookup for growth inhibition; key = `CC(C)(CO)NC(=O)c1cccs1`
Result :: -20

* * *

- ASSAY_COMMENT: NCI Yeast Anticancer Drug Screen. Data for the rad50 strain (AID 155);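 also: 0% = growth of vehicle-only cultures of the same strain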
- PROTOCOL_CONDITIONS: S. cerevisiae rad50 strain growth inhibition; at 50.0 µM; stronger effect = higher value
About 79,000 compounds went through this panel and 15% of them were active in at least one assay; those are over-represented in the sample as a whole.
Please provide measured growth inhibition for the entries that follow.
Report the value in % with no unit label.

Query :: Value lookup for growth inhibition; key = `OC[C@@H]1C2CCC([C@@H]1CO)C2(Cc1ccccc1)Cc1ccccc1`
Result :: 5.9

Query :: Value lookup for growth inhibition; key = `COC(=O)c1ccc(Cl)c(Cl)c1Cl`
Result :: -3.6

Query :: Value lookup for growth inhibition; key = `CCCc1nc2ccccc2c(=O)n1/N=C/c1ccc(Cl)cc1`
Result :: 0.5

* * *

- ASSAY_COMMENT: NCI Yeast Anticancer Drug Screen. Data for the mlh1 rad18 strain (AID 175)
- PROTOCOL_CONDITIONS: S. cerevisiae mlh1 rad18 strain growth inhibition; at 50.0 µM; stronger effect = higher value
- Experimental: Growth inhibition of yeast strains with defined genetic alterations is measured as a screen for potential anti-cancer activity. Selected strains with alterations in DNA damage repair or cell cycle control were exposed to compounds and growth inhibition was measured relative to vehicle treated controls. The strain used in this assay is mlh1 rad18
The panel holds about 79,000 compounds, 15% with a hit somewhere; the sample as a whole holds those more often. Active and inactive are the calls of the source. No stated cut-off is given here; in the data, active means growth inhibition above about 70%; inactive means the rest.
PROPERTY_NAME: growth inhibition

Query :: Value lookup for growth inhibition; key = `COc1cccc(C2N(Cc3ccccc3OC)CCCN2Cc2ccccc2OC)c1`
Result :: 8% (inactive)

Query :: Value lookup for growth inhibition; key = `COc1ccc(-c2cc(-c3ccccc3)c(C#N)c(=O)[nH]2)cc1`
Result :: 21% (inactive)

Query :: Value lookup for growth inhibition; key = `O=C(Nc1ccc(Cl)c(Cl)c1)c1ccc(C(=O)Nc2ccc(Cl)c(Cl)c2)cc1`
Result :: 30.3% (inactive)

Query :: Value lookup for growth inhibition; key = O=C(CCN1C(=O)CC1c1ccco1)N1CCOCC1 (centres undefined)
Result :: 13.3% (inactive)

* * *

Please provide measured growth inhibition for the entries that follow.
- ASSAY_COMMENT: NCI Yeast Anticancer Drug Screen. Data for the mlh1 rad18 strain (AID 175)
- PROTOCOL_CONDITIONS: S. cerevisiae mlh1 rad18 strain growth inhibition; at 50.0 µM; stronger effect = higher value
About 79,000 compounds went through this panel and 15% of them were active in at least one assay; those are over-represented in the sample as a whole.
Report the value in % with no unit label.

Query :: Value lookup for growth inhibition; key = `Fc1ccccc1-c1nc2ccccc2s1`
Result :: 28.3

Query :: Value lookup for growth inhibition; key = C/C(=C\CNc1ncnc2c1ncn2C1CCCCO1)COP(=O)(O)O (stereo not drawn)
Result :: 27.9

Query :: Value lookup for growth inhibition; key = `c1ccc(-c2oc3ccc4ccccc4c3c2-c2ccc(OCCN3CCCC3)cc2)cc1`
Result :: 61.5

Query :: Value lookup for growth inhibition; key = COc1ccc(/C(=N\NC(=O)NN)C(c2ccc(OC)cc2)C2(O)C(=O)Nc3c(Cl)cc(Cl)cc32)cc1 (stereo not drawn)
Result :: -10.2

Query :: Value lookup for growth inhibition; key = `C1CCN(CCC2CCNCC2)C1`
Result :: 3.8

Query :: Value lookup for growth inhibition; key = `CCSCCCSCCSCC`
Result :: 56

Query :: Value lookup for growth inhibition; key = CCC(C)C(=O)OCC1(c2ccc(C)cc2OC(=O)C(C)C)CO1 (stereo not drawn)
Result :: 12.2

Query :: Value lookup for growth inhibition; key = C1OC1CO[C@H]1CO[C@H]2[C@@H]1OC[C@@H]2OCC1CO1 (stereo partly drawn)
Result :: 2.25

Query :: Value lookup for growth inhibition; key = `CC1=C(C(=O)NCc2ccccc2)C(c2ccc([N+](=O)[O-])cc2)C(C(=O)NCc2ccccc2)=C(C)N1`
Result :: -23.8

Query :: Value lookup for growth inhibition; key = `CCOC(=O)c1c(C)[nH]c(=S)c(C#N)c1-c1ccco1`
Result :: 28

Query :: Value lookup for growth inhibition; key = O=C(Nc1cc(Cl)ccc1Cl)C(=O)C(c1cnc2ccccc2n1)[N+](=O)[O-] (stereo not drawn)
Result :: 13.3

Query :: Value lookup for growth inhibition; key = `CC1=C(O)c2cc3c(cc2C(=O)C1=O)OCO3`
Result :: 26.9

Query :: Value lookup for growth inhibition; key = `O=C(O)c1ccccc1C(=O)CC(O)(C(F)(F)F)C(F)(F)F`
Result :: -20.9

* * *

- ASSAY_COMMENT: NCI Yeast Anticancer Drug Screen. Data for the mec2-1 strain (AID 157)
- PROTOCOL_CONDITIONS: S. cerevisiae mec2-1 strain, at 50.0 µM, stronger effect = higher value
About 79,000 compounds went through this panel and 15% of them were active in at least one assay; those are over-represented in the sample as a whole. Active and inactive are the calls of the source. Cut-off read from the data, not from the text of the source: active = growth inhibition above about 70%; inactive = the rest.
PROPERTY_NAME: growth inhibition

Query :: Value lookup for growth inhibition; key = `C=Cc1cccc([N+](=O)[O-])c1`
Result :: -0.15% (inactive)

Query :: Value lookup for growth inhibition; key = `CC(=O)n1[nH]c(=O)n(-c2ccccc2)c1=O`
Result :: -20.1% (inactive)

Query :: Value lookup for growth inhibition; key = O=c1[nH]c(=O)n(C2OC(CO)C(O)C2O)cc1OCCCc1ccccc1 (configuration not stated)
Result :: -1.8% (inactive)

Query :: Value lookup for growth inhibition; key = COc1ccc(C(Cc2ccccc2Cl)N(CCO)CCO)cc1 (configuration not stated)
Result :: -5.3% (inactive)

Query :: Value lookup for growth inhibition; key = `Cc1cc(N(CCC#N)CCC#N)ccc1/C(N=Nc1ccc([N+](=O)[O-])cc1)=N\NC(=O)c1cc(Cl)ccc1O`
Result :: 8.8% (inactive)

Query :: Value lookup for growth inhibition; key = `Cc1sc2nc(N(C)C)oc(=O)c2c1C`
Result :: 51% (inactive)

Query :: Value lookup for growth inhibition; key = `CN(CCN1CCOCC1)C(c1ccccc1)c1ccccc1`
Result :: 66.3% (inactive)
